- Test system: 485176-168-R4-J1-PDC complex spheroid growth;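 further: spheroids exposed to compounds for seven days before readout; luminescence viability expressed relative to DMSO vehicle wells set as 100%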
- EXPERIMENT: Anticancer human tumor 485176-168-R4-J1-PDC patient-derived pancreatic adenocarcinoma cell line growth inhibition [RAS]; active means viability on the fitted dose curve at most 10% of control; inactive means the rest
- MEASUREMENT SETUP: second compound 0.003 µM; first compound 1 µM
Outcomes: 1.0 = active, 0.0 = inactive

{"COMPOUND": "Nc1ccn(C2OC(CO)C(O)C2(F)F)c(=O)n1 (stereo not drawn) + CCn1c(-c2cc(N3CCN(C)CC3)cnc2C(C)OC)c2c3cc(ccc31)-c1csc(n1)CC(NC(=O)C1CC1C)C(=O)N1CCCC(N1)C(=O)OCC(C)(C)C2", "CATEGORY": 1.0}
{"COMPOUND": "C[C@@H](NC(=O)c1ncnc(N)c1Cl)c1ncc(C(=O)Nc2cc(C(F)(F)F)c(Cl)cn2)s1 + CCn1c(-c2cc(N3CCN(C)CC3)cnc2C(C)OC)c2c3cc(ccc31)-c1csc(n1)CC(NC(=O)C1CC1C)C(=O)N1CCCC(N1)C(=O)OCC(C)(C)C2", "CATEGORY": 0.0}
{"COMPOUND": "CC1(O)CCCC1n1c(=O)c(C(F)F)cc2cnc(NC3CCN(S(C)(=O)=O)CC3)nc21 (stereo not drawn) + CCn1c(-c2cc(N3CCN(C)CC3)cnc2C(C)OC)c2c3cc(ccc31)-c1csc(n1)CC(NC(=O)C1CC1C)C(=O)N1CCCC(N1)C(=O)OCC(C)(C)C2", "CATEGORY": 0.0}
{"COMPOUND": "C=CC(=O)N1CCN(c2nc(OCC3CCCN3C)nc3c(F)c(-c4nc(N)cc(C)c4C(F)(F)F)c(Cl)cc23)C(C)C1 (stereo not drawn) + CCn1c(-c2cccnc2C(C)OC)c2c3cc(ccc31)N1CCOC(CC(NC(=O)C(C(C)C)N(C)C(=O)C3(F)CCN(C(=O)C#CC(C)(C)N(C)C)CC3)C(=O)N3CCCC(N3)C(=O)OCC(C)(C)C2)C1", "CATEGORY": 0.0}
{"COMPOUND": "CCC(CC)c1cc(NC2CCC(N)C2)n2nccc2n1 (stereo not drawn) + CCn1c(-c2cc(N3CCN(C)CC3)cnc2C(C)OC)c2c3cc(ccc31)-c1csc(n1)CC(NC(=O)C1CC1C)C(=O)N1CCCC(N1)C(=O)OCC(C)(C)C2", "CATEGORY": 0.0}
{"COMPOUND": "CC(Nc1ccc2c(c1)OCCn1cc(N3C(=O)OCC3C(F)F)nc1-2)C(N)=O (stereo not drawn) + CCn1c(-c2cc(N3CCN(C)CC3)cnc2C(C)OC)c2c3cc(ccc31)-c1csc(n1)CC(NC(=O)C1CC1C)C(=O)N1CCCC(N1)C(=O)OCC(C)(C)C2", "CATEGORY": 0.0}
{"COMPOUND": "Cc1nc(N2CCC3(CC2)COC(C)C3N)c(CO)nc1Sc1ccnc(N)c1Cl (stereo not drawn) + CCn1c(-c2cccnc2C(C)OC)c2c3cc(ccc31)N1CCOC(CC(NC(=O)C(C(C)C)N(C)C(=O)C3(F)CCN(C(=O)C#CC(C)(C)N(C)C)CC3)C(=O)N3CCCC(N3)C(=O)OCC(C)(C)C2)C1", "CATEGORY": 0.0}
{"COMPOUND": "Nc1ccn(C2OC(CO)C(O)C2(F)F)c(=O)n1 (stereo not drawn) + CCn1c(-c2cccnc2C(C)OC)c2c3cc(ccc31)N1CCOC(CC(NC(=O)C(C(C)C)N(C)C(=O)C3(F)CCN(C(=O)C#CC(C)(C)N(C)C)CC3)C(=O)N3CCCC(N3)C(=O)OCC(C)(C)C2)C1", "CATEGORY": 1.0}
